systemName: α-Glucosidase from Saccharomyces cerevisiae (Saccharomyces cerevisiae, UniProt P53341)
Sequence (P53341 whole entry): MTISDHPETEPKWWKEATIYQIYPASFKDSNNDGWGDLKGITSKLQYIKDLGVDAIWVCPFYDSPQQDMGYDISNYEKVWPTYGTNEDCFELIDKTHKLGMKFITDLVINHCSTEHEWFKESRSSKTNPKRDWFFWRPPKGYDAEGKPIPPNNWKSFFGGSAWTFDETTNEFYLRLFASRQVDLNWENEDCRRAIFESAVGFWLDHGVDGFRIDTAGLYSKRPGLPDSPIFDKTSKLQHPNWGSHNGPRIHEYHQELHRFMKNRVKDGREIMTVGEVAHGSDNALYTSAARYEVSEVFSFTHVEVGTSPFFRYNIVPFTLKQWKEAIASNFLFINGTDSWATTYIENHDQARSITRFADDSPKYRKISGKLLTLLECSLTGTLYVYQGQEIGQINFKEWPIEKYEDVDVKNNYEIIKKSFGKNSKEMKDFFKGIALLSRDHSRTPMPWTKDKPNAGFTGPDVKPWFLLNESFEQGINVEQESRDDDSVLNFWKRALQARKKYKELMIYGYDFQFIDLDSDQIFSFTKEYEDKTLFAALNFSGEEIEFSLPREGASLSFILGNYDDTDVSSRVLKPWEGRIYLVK
assayExplanation: In vitro α-glucosidase inhibition study
reportedConditions: IC50, μM, average value ± standard deviation; p-nitrophenyl α-D-glucoside substrate, pH 6.8, 37 °C
Here, each record is paired with measured IC50 data.

{"compound": "O=c1c(-c2ccc(O)cc2)coc2c(Cn3ccnc3)c(O)ccc12", "systemName": "α-Glucosidase from Saccharomyces cerevisiae (Saccharomyces cerevisiae, UniProt P53341)", "unitsLabel": "µM", "IC50": 27}
{"compound": "COc1ccc(-c2coc3c(Cn4cnc5ccccc54)c(O)ccc3c2=O)cc1 [Compound 10d]", "systemName": "α-Glucosidase from Saccharomyces cerevisiae (Saccharomyces cerevisiae, UniProt P53341)", "unitsLabel": "µM", "IC50": 20.6}
{"compound": "COc1ccc(-c2coc3c(Cn4nc(C)cc4C)c(O)ccc3c2=O)cc1 [Compound 12d]", "systemName": "α-Glucosidase from Saccharomyces cerevisiae (Saccharomyces cerevisiae, UniProt P53341)", "unitsLabel": "µM", "IC50": 20.9}
{"compound": "Cc1cc(C)n(Cc2c(O)ccc3c(=O)c(-c4ccc(O)cc4)coc23)n1 [Compound 12c]", "systemName": "α-Glucosidase from Saccharomyces cerevisiae (Saccharomyces cerevisiae, UniProt P53341)", "unitsLabel": "µM", "IC50": 27.4}
{"compound": "COc1ccc(-c2coc3c(Cn4ncc5ccccc54)c(O)ccc3c2=O)cc1 [Compound 13b]", "systemName": "α-Glucosidase from Saccharomyces cerevisiae (Saccharomyces cerevisiae, UniProt P53341)", "unitsLabel": "µM", "IC50": 17.1}
{"compound": "COc1ccc(-c2c(C)oc3c(Cn4cnc5ccccc54)c(O)ccc3c2=O)cc1 [Compound 10f]", "systemName": "α-Glucosidase from Saccharomyces cerevisiae (Saccharomyces cerevisiae, UniProt P53341)", "unitsLabel": "µM", "IC50": 25.5}
{"compound": "Cc1cc(C)n(Cc2c(O)ccc3c(=O)c(-c4ccc(OC(F)(F)F)cc4)coc23)n1 [Compound 12i]", "systemName": "α-Glucosidase from Saccharomyces cerevisiae (Saccharomyces cerevisiae, UniProt P53341)", "unitsLabel": "µM", "IC50": 5.8}
{"compound": "O=c1c(-c2ccc(OC(F)(F)F)cc2)coc2c(Cn3cccn3)c(O)ccc12 [Compound 11j]", "systemName": "α-Glucosidase from Saccharomyces cerevisiae (Saccharomyces cerevisiae, UniProt P53341)", "unitsLabel": "µM", "IC50": 14.3}

====

systemName: UniProt P53341
assayExplanation: In vitro α-glucosidase inhibition study
reportedConditions: pH 6.8, read-out: Inhibition at 25 μM (%)

{"compound": "COc1ccc(-c2coc3c(Cn4cc5ccccc5n4)c(O)ccc3c2=O)cc1 [Compound 14b]", "inhibition at 25 µM": "50.3%"}
{"compound": "COc1ccc(-c2coc3c(Cn4ncc5ccccc54)c(O)ccc3c2=O)cc1 [Compound 13b]", "inhibition at 25 µM": "73%"}
{"compound": "O=c1c(-c2ccc(OC(F)(F)F)cc2)coc2c(Cn3cccn3)c(O)ccc12 [Compound 11j]", "inhibition at 25 µM": "84.1%"}
{"compound": "O=c1c(-c2ccc(O)cc2)coc2c(Cn3ccnc3)c(O)ccc12", "inhibition at 25 µM": "42%"}
{"compound": "COc1ccc(-c2coc3c(Cn4cnc5ccccc54)c(O)ccc3c2=O)cc1 [Compound 10d]", "inhibition at 25 µM": "64.6%"}
{"compound": "Cc1cc(C)n(Cc2c(O)ccc3c(=O)c(-c4ccc(O)cc4)coc23)n1 [Compound 12c]", "inhibition at 25 µM": "42.8%"}
{"compound": "COc1ccc(-c2coc3c(Cn4nc(C)cc4C)c(O)ccc3c2=O)cc1 [Compound 12d]", "inhibition at 25 µM": "67.3%"}
{"compound": "Cc1cc(=O)oc2c(Cn3ccnc3)c(O)ccc12", "inhibition at 25 µM": "53.4%"}
{"compound": "COc1ccc(-c2c(C)oc3c(Cn4cnc5ccccc54)c(O)ccc3c2=O)cc1 [Compound 10f]", "inhibition at 25 µM": "48.6%"}
